// data source = patent US20240376185A1

TEST TARGET: T1, recombinant tetanus toxin fragment C (rTTC) (Clostridium tetani, UniProt P04958 865-1315)
T1 sequence: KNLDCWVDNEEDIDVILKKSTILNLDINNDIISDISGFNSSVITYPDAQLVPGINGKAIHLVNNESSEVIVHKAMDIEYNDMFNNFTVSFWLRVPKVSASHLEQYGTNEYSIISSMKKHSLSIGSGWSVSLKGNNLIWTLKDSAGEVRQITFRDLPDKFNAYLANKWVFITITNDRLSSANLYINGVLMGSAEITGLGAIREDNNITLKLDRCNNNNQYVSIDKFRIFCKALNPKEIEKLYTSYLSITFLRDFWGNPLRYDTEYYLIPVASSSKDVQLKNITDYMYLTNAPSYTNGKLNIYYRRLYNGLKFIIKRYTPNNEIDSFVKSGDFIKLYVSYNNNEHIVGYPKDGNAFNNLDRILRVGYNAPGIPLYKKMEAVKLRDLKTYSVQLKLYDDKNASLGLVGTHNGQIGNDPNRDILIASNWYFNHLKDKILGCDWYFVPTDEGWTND
EXPERIMENT: ELISA, directly coated rTTC, unlabelled binder
Recorded maximal absorbance at 450 nm, one value per entry.

{"BINDER": "SVT02L (VHH) VHH: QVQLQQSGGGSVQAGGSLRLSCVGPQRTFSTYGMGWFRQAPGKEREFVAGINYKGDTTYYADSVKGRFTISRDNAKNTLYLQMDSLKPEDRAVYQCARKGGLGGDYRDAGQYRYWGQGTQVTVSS", "maximal absorbance at 450 nm": 0.057}
{"BINDER": "SVT08L (VHH) VHH: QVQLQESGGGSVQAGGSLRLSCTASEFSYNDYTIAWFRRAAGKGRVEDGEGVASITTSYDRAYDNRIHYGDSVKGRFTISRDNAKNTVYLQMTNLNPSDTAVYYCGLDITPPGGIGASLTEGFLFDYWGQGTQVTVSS", "maximal absorbance at 450 nm": 0.502}
{"BINDER": "SVT15L-3FW4M (VHH) VHH: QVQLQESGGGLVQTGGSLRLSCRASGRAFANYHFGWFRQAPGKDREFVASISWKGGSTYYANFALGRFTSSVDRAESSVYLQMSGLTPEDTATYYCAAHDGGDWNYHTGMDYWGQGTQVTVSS", "maximal absorbance at 450 nm": 0.206}
